Molecular target: His6-JNK1α1 (UniProt P45983-2 1-384)
Experiment: fluorescence polarisation
TMR = 6-carboxytetramethylrhodamine
Reported metric: Kd (nM)

[[record]]
binder = "{TMR}-RPKRPTTLNLF-OH [TMR-JIPtide]"
reported_metric = "Kd"
endpoint_unit = "nM"
obs_value = 250


The reported measurements were obtained from paper PMC6338552.
